molecular target: hFASN enzyme (full length) (Homo sapiens (Human)); assay: Fatty Acid Synthase (FASN) Inhibition Scintillation Proximity Assay; format: biochemical; details: 3H-acetyl-CoA and malonyl-CoA substrates, SPA, mean if tested more than once
Sequence (P49327 whole entry): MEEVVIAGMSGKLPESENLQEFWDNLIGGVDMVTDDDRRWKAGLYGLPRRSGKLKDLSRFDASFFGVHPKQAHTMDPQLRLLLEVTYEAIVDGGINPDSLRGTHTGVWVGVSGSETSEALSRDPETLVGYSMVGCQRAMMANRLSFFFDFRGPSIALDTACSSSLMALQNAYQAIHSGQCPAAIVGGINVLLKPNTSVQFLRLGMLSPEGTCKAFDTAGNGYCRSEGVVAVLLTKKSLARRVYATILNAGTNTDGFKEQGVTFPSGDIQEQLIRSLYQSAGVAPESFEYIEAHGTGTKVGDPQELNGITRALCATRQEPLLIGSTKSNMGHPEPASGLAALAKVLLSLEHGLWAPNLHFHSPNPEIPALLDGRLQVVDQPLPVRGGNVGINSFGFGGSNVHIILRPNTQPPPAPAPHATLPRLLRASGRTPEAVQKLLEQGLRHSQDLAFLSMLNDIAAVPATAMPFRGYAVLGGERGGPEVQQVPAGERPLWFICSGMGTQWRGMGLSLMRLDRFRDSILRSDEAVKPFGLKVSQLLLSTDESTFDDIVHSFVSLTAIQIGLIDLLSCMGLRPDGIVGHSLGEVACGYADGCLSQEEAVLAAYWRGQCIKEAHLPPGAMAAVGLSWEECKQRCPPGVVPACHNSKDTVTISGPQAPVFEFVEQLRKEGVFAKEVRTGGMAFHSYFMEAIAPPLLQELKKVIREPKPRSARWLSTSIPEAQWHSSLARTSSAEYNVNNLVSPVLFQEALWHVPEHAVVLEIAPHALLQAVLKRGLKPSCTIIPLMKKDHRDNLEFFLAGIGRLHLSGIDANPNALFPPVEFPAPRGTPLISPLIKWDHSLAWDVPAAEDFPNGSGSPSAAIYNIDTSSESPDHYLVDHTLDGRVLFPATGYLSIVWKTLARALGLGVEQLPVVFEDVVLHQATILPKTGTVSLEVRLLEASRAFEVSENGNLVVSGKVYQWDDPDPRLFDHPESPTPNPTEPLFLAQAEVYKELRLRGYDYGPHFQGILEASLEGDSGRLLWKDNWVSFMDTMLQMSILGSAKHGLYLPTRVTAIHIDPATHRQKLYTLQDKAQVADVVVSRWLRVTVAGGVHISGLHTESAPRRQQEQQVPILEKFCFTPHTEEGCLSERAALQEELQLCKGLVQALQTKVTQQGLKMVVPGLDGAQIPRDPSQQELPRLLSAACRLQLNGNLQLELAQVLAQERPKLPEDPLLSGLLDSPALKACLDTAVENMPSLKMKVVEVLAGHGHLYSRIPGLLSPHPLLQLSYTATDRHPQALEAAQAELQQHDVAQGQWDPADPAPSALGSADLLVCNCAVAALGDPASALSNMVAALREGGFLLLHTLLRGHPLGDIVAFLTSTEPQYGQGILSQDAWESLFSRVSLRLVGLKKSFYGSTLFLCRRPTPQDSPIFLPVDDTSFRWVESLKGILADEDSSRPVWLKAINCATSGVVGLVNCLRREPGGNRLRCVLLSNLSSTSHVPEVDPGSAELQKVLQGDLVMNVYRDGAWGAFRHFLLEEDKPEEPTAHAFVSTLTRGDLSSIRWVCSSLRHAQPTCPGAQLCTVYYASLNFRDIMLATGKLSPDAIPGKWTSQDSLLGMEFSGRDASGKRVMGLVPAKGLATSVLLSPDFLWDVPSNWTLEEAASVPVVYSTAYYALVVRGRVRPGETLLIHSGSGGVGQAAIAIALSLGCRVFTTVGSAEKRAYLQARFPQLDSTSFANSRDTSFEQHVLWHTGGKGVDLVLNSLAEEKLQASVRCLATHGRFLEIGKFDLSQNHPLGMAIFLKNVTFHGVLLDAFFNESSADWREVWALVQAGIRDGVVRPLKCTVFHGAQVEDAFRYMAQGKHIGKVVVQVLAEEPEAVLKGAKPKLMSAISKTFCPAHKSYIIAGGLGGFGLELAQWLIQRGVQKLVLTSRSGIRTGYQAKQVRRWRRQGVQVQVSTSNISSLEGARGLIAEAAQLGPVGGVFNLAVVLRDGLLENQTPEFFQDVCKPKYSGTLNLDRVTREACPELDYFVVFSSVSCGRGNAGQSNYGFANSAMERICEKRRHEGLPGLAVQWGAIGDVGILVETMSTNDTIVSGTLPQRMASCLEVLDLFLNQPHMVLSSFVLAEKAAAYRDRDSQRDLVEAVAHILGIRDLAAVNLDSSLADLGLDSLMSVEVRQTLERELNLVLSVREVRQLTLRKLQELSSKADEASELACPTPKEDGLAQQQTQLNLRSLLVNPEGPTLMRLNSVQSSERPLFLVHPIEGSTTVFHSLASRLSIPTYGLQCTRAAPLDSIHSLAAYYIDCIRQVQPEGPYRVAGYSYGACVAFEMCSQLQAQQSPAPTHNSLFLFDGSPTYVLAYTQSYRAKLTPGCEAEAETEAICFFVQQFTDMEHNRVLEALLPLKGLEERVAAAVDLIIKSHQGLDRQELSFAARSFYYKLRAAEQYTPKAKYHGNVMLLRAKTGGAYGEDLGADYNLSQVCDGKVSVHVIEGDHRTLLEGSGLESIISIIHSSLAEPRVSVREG
quantity_kind: Human FASN pIC50

*Q* Answer with reported Human FASN pIC50 of CC1(C)N=C(c2ccc(-c3ccc4cnccc4c3)cc2)N(CC2CN(C(=O)C3CC3)C2)C1=O [Compound 27]
*A* 6.72

*Q* Quick one: give measured Human FASN pIC50 for CC1(C)N=C(c2ccc(-c3n[nH]c4ccccc34)cc2F)N(CC2CN(C(=O)C3CC3)C2)C1=O [Compound 58]
*A* 6.00

*Q* Supply reported Human FASN pIC50 belonging to this compound: CC1(C)N=C(c2ccc(-c3ccc(-c4ccncc4)cc3)cc2F)N(CC2CN(C(=O)C3CC3)C2)C1=O [Compound 22]
*A* 6.80

*Q* State its Human FASN pIC50: CC1(C)N=C(c2ccc(-c3ccc4cc(F)ccc4c3)cc2F)N(CC2CN(C(=O)C3CC3)C2)C1=O [Compound 54]
*A* 7.55

*Q* Note Human FASN pIC50 for the compound shown: CC1(C)N=C(c2ccc(-c3ccc4cc(F)ccc4c3)cc2F)N(C[C@@H]2CCN(C(=O)C3(O)CC3)C2)C1=O [Compound 88]
*A* 7.69

*Q* Please list Human FASN pIC50 recorded for the compound CC1(C(=O)N2CC(CN3C(=O)C(C)(C)N=C3c3ccc(-c4ccc5cc(F)ccc5c4)cc3F)C2)CC1 [Compound 72]
*A* 7.45

*Q* Report Human FASN pIC50, nothing else, for this compound: CC1(C)N=C(c2ccc(-c3ccc4cccnc4c3)cc2)N(CC2CN(C(=O)C3CC3)C2)C1=O [Compound 24]
*A* 6.69

*Q* Identify measured Human FASN pIC50 corresponding to Cn1cc(-c2ccc(-c3ccc(C4=NC(C)(C)C(=O)N4C[C@@H]4CCN(C(=O)C5(C)CC5)C4)c(F)c3)cc2)cn1 [Compound 74]
*A* 7.26

*Q* Determine its reported Human FASN pIC50: CC1(C)N=C(c2ccc(-c3cnc4ccccc4c3)cc2)N(CC2CN(C(=O)C3CC3)C2)C1=O [Compound 19]
*A* 5.38

*Q* State its Human FASN pIC50: Cn1cc(-c2ccc(-c3ccc(C4=NC(C)(C)C(=O)N4CC4CN(C(=O)C5CC5)C4)cc3)cc2)cn1 [Compound 17]
*A* 6.26

*Q* Write down Human FASN pIC50 measured for item CC1(C)N=C(c2ccc(-c3ccc4occc4c3)cc2)N(C[C@@H]2CCN(C(=O)C3(F)CC3)C2)C1=O [Compound 4]
*A* 6.92

*Q* Determine its reported Human FASN pIC50: CC1(C)N=C(c2ccc(-c3c[nH]c4ccccc34)cc2)N(C[C@@H]2CCN(C(=O)C3CC3)C2)C1=O [Compound 65]
*A* 6.64

*Q* Quick one: give measured Human FASN pIC50 for CC1(C(=O)N2CC[C@@H](CN3C(=O)C(C)(C)N=C3c3ccc(-c4ccc5cc(F)ccc5c4)cc3F)C2)CC1 [Compound 75]
*A* 7.26

*Q* Quote Human FASN pIC50 reported for Cc1cc(-c2ccc3c(cnn3C)c2)ccc1C1=NC(C)(C)C(=O)N1C[C@@H]1CCN(C(=O)C2(C)CC2)C1 [Compound 80] please.
*A* 7.20

*Q* For the compound Cn1cnc2cc(-c3ccc(C4=NC(C)(C)C(=O)N4C[C@@H]4CCN(C(=O)C5(C)CC5)C4)c(F)c3)ccc21 [Compound 90] , give its measured Human FASN pIC50 value.
*A* 7.10

*Q* Using known records, supply Human FASN pIC50 for CC1(C)N=C(c2ccc(-c3ccc4cncnc4c3)cc2)N(C[C@@H]2CCN(C(=O)C3CC3)C2)C1=O [Compound 42]
*A* 6.65

====

target: FASN Keto-reductase Domain (hFASN enzyme, full length) (Homo sapiens (Human), UniProt P49327); assay: Fatty Acid Synthase Keto-reductase Domain (FASN KR) Inhibition; format: biochemical; details: NADPH oxidation at 340 nm, ethyl acetoacetate substrate
quantity_kind: FASN Keto-reductase Domain pIC50

*Q* Name the recorded FASN Keto-reductase Domain pIC50 of the item CC1(C)N=C(c2ccc(-c3ccc4occc4c3)cc2)N(C[C@@H]2CCN(C(=O)C3CC3)C2)C1=O in your answer.
*A* 6.33

*Q* Answer with the recorded FASN Keto-reductase Domain pIC50 for the compound listed here: CC1(C)N=C(c2ccc(-c3ccc4cc(F)ccc4c3)cc2F)N(CC2CN(C(=O)C3(O)CC3)C2)C1=O
*A* 6.92

*Q* Report FASN Keto-reductase Domain pIC50, nothing else, for this compound: CC1(C)N=C(c2ccc(-c3cnc4ccccc4c3)cc2)N(C[C@@H]2CCN(C(=O)C3CC3)C2)C1=O
*A* 6.17

*Q* Give the reported value of FASN Keto-reductase Domain pIC50 for this record: Cc1cc(-c2ccc3c(cnn3C)c2)ccc1C1=NC(C)(C)C(=O)N1CC1CN(C(=O)C2(C)CC2)C1
*A* 6.44

====

target: hFASN enzyme (full length) (Homo sapiens (Human)); experiment: Fatty Acid Synthase (FASN) Inhibition Scintillation Proximity Assay; assay type: biochemical; conditions: 3H-acetyl-CoA and malonyl-CoA substrates, SPA, mean if tested more than once
quantity_kind: Human FASN pIC50

*Q* Answer with the recorded Human FASN pIC50 of Cc1cc(-c2ccc3c(c2)ncn3C)ccc1C1=NC(C)(C)C(=O)N1CC1CN(C(=O)C2(C)CC2)C1 only.
*A* 6.99

*Q* Report Human FASN pIC50, nothing else, for this compound: Cn1cc(-c2ccc(-c3ccc(C4=NC(C)(C)C(=O)N4C[C@@H]4CCN(C(=O)C5(O)CC5)C4)c(F)c3)cc2)cn1
*A* 7.52

*Q* Give me measured Human FASN pIC50, please, for this compound: CC1(C)N=C(c2ccc(-c3ccc4cncnc4c3)cc2F)N(CC2CN(C(=O)C3CC3)C2)C1=O
*A* 6.11

*Q* Give me measured Human FASN pIC50, please, for this compound: Cn1cnc2cc(-c3ccc(C4=NC(C)(C)C(=O)N4CC4CN(C(=O)C5(O)CC5)C4)c(F)c3)ccc21
*A* 6.49

*Q* Indicate the recorded Human FASN pIC50 value for this compound: CC1(C)N=C(c2ccc(-c3cccc4ncccc34)cc2)N(C[C@@H]2CCN(C(=O)C3CC3)C2)C1=O
*A* 6.72

====

molecular target: UniProt:P49327; assay: Fatty Acid Synthase (FASN) Inhibition Scintillation Proximity Assay; format: biochemical; conditions: 3H-acetyl-CoA and malonyl-CoA substrates, SPA, mean if tested more than once
quantity_kind: Human FASN pIC50

*Q* For the molecule CC1(C)N=C(c2ccc(-c3c[nH]c4ccccc34)cc2F)N(C[C@@H]2CCN(C(=O)C3CC3)C2)C1=O , report Human FASN pIC50.
*A* 7.16

*Q* Could you please provide reported Human FASN pIC50 for Cc1cc(-c2ccc3cc(C#N)ccc3c2)ccc1C1=NC(C)(C)C(=O)N1CC1CN(C(=O)C2CC2)C1 ? Thanks!
*A* 7.39

*Q* Write down Human FASN pIC50 measured for item CC1(C)N=C(c2ccc(-c3ccc4ncccc4c3)cc2F)N(CC2CN(C(=O)C3CC3)C2)C1=O
*A* 5.05

*Q* Please report Human FASN pIC50 for the following molecule: Cn1cnc2cc(-c3ccc(C4=NC(C)(C)C(=O)N4CC4CN(C(=O)C5(C)CC5)C4)c(F)c3)ccc21
*A* 7.00

*Q* Identify the reported Human FASN pIC50 for the following entry. Cc1cc(-c2ccc3c(c2)ncn3C)ccc1C1=NC(C)(C)C(=O)N1C[C@@H]1CCN(C(=O)C2(C)CC2)C1
*A* 7.10

*Q* Fill in Human FASN pIC50 for record CC1(C)N=C(c2ccc(-c3ccc4cccc(F)c4c3)cc2)N(CC2CN(C(=O)C3CC3)C2)C1=O
*A* 6.75

*Q* Give a short answer stating reported Human FASN pIC50 for CC1(C)N=C(c2ccc(-c3ccc4cncnc4c3)cc2F)N(C[C@@H]2CCN(C(=O)C3CC3)C2)C1=O .
*A* 6.79

*Q* Please give the documented Human FASN pIC50 of CC1(C)N=C(c2ccc(-c3ccc4cccnc4c3)cc2F)N(C[C@@H]2CCN(C(=O)C3CC3)C2)C1=O
*A* 7.34

*Q* Input Cn1ncc2cc(-c3ccc(C4=NC(C)(C)C(=O)N4CC4CN(C(=O)C5CC5)C4)c(F)c3)ccc21 , output reported Human FASN pIC50.
*A* 6.29

*Q* Indicate its recorded Human FASN pIC50; the molecule in question is CC1(C)N=C(c2ccc(-c3ccc(-c4ccncc4)cc3)cc2F)N(C[C@@H]2CCN(C(=O)C3CC3)C2)C1=O
*A* 7.28

*Q* Respond only with Human FASN pIC50 recorded for CC1(C)N=C(c2ccc(-c3ccc4cc(F)ccc4c3)cc2)N(C[C@@H]2CCN(C(=O)C3CC3)C2)C1=O
*A* 7.26

*Q* Quickly give me recorded Human FASN pIC50 for Cc1cc(-c2ccc(-c3cnn(C)c3)cc2)ccc1C1=NC(C)(C)C(=O)N1C[C@@H]1CCN(C(=O)C2(C)CC2)C1
*A* 7.27

*Q* State its Human FASN pIC50: Cc1cc(-c2ccc(-c3cnn(C)c3)cc2)ccc1C1=NC(C)(C)C(=O)N1CC1CN(C(=O)C2(C)CC2)C1
*A* 7.12

*Q* Kindly indicate its recorded Human FASN pIC50. Item: CC1(C)N=C(c2ccc(-c3ccc4ncccc4c3)cc2F)N(C[C@@H]2CCN(C(=O)C3CC3)C2)C1=O
*A* 5.86
